Data origin: ChEMBL document CHEMBL6078645

Target: UniProt Q12809
Sequence (Q12809 whole entry): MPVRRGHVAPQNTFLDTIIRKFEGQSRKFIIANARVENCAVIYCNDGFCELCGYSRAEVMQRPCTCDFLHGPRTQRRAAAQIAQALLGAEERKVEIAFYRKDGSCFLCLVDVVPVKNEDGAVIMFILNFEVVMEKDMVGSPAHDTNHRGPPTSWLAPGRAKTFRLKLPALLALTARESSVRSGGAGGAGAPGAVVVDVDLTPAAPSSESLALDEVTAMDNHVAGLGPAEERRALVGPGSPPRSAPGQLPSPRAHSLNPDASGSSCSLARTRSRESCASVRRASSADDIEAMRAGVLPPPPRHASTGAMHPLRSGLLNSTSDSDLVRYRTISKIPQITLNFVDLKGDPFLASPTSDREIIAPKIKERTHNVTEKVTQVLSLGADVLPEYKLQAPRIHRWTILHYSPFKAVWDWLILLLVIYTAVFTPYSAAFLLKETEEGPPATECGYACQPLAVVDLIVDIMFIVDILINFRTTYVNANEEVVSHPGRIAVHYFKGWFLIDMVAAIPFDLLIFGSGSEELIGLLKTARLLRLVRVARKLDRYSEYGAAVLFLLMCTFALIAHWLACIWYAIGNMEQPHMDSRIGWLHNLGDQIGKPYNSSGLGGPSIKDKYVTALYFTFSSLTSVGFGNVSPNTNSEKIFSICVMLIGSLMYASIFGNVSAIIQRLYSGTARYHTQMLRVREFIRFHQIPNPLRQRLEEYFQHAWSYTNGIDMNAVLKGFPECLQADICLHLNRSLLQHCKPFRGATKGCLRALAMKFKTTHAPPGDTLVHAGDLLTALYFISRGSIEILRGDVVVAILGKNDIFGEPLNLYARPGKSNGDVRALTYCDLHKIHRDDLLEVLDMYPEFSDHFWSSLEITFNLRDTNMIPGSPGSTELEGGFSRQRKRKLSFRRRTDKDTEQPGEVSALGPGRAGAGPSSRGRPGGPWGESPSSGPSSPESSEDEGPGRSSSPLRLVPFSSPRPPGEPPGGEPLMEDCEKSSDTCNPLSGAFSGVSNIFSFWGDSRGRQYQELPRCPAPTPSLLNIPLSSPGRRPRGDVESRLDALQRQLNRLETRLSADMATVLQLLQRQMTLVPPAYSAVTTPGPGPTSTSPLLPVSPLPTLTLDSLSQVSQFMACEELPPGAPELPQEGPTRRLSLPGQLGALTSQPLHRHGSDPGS
Assay: Inhibition of hERG potassium channel stably expressed in CHO cells at -80 mV holding potential by whole-cell patch-clamp analysis
reportedEndpoint: IC50 (µM)
Give your result in µM as a bare value.

Ask: // fetch IC50 given entry Cc1cc(-c2ccc(C#N)cc2)cc(C)c1Oc1nc(NC2CCN(Cc3ccc(S(N)(=O)=O)cc3)CC2)ncc1CO
Reply: 20

====

This listing pairs compounds with measured log10(EC50).
System: Human immunodeficiency virus 1
Assay: Antiviral activity against HIV-1 harboring Y188L mutant infected in human MT4 cells assessed as protection against virus-induced cytopathic effect incubated for 5 days by MTT assay
Assay type: functional, organism-based
Details: Human immunodeficiency virus 1, MT4, 120 h
Transform log10 | Measure EC50 | Unit nM

Ask: Check the records and state log10(EC50) for Cc1ccnc2c1NC(=O)c1cccnc1N2C1CC1 [NEVIRAPINE]
Reply: 3.97

Ask: Tell us which log10(EC50) value is on record for Cc1cc(-c2ccncc2)cc(C)c1Oc1nc(NC2CCN(Cc3ccc(C(N)=O)cc3)CC2)ncc1CO
Reply: 2.32

Ask: // fetch log10(EC50) given entry CNS(=O)(=O)c1ccc(CN2CCC(Nc3ncc(CO)c(Oc4c(C)cc(-c5ccc(C#N)cc5)cc4C)n3)CC2)cc1
Reply: 1.49

Ask: # return recorded log10(EC50) for input Cc1cc(-c2ccc(C#N)cc2)cc(C)c1Oc1nc(NC2CCN(Cc3cccc(C(N)=O)c3)CC2)ncc1CO
Reply: 2.41

New cases:
Ask: Determine its reported log10(EC50): Cc1cc(-c2ccc(C#N)cc2)cc(C)c1Oc1nc(NC2CCN(Cc3ccc(S(N)(=O)=O)cc3)CC2)ncc1CO
Reply: 1.36

====

Target: Human immunodeficiency virus type 1 reverse transcriptase (Human immunodeficiency virus 1)
Assay: Inhibition of wildtype recombinant HIV-1 Reverse transcriptase incubated for 40 mins by spectrofluorometric analysis
Entries and their measured IC50 follow.
Output spec: scalar in nM, unitless text.

Answered examples (6):
Ask: With Human immunodeficiency virus type 1 reverse transcriptase (Human immunodeficiency virus 1) as the test system, provide measured IC50 for this molecule: COCCNC(=O)c1ccc(CN2CCC(Nc3ncc(CO)c(Oc4c(C)cc(-c5ccc(C#N)cc5)cc4C)n3)CC2)cc1
Reply: 509

Ask: Lab note: Human immunodeficiency virus type 1 reverse transcriptase (Human immunodeficiency virus 1) assay, enter IC50 for Cc1cc(-c2ccc(C#N)cc2)cc(C)c1Oc1nc(NC2CCN(Cc3ccc(S(C)(=O)=O)cc3)CC2)ncc1CO here
Reply: 270

Ask: Give Human immunodeficiency virus type 1 reverse transcriptase (Human immunodeficiency virus 1) IC50 for the following molecule: CNS(=O)(=O)c1ccc(CN2CCC(Nc3ncc(CO)c(Oc4c(C)cc(-c5ccncc5)cc4C)n3)CC2)cc1
Reply: 198

Ask: Look up and report measured IC50 (Human immunodeficiency virus type 1 reverse transcriptase (Human immunodeficiency virus 1)) for the following molecule: COC(=O)c1ccc(CN2CCC(Nc3ncc(CO)c(Oc4c(C)cc(-c5ccc(C#N)cc5)cc4C)n3)CC2)cc1
Reply: 377

Ask: Lab note: record IC50 of CNC(=O)c1ccc(CN2CCC(Nc3ncc(CO)c(Oc4c(C)cc(-c5ccncc5)cc4C)n3)CC2)cc1 tested on Human immunodeficiency virus type 1 reverse transcriptase (Human immunodeficiency virus 1).
Reply: 253

Ask: Please report IC50 with Human immunodeficiency virus type 1 reverse transcriptase (Human immunodeficiency virus 1) for item Cc1cc(-c2ccc(C#N)cc2)cc(C)c1Oc1nc(NC2CCN(Cc3cccc(C(N)=O)c3)CC2)ncc1CO .
Reply: 201

Continuing:
Ask: Quote Human immunodeficiency virus type 1 reverse transcriptase (Human immunodeficiency virus 1) IC50 for entry Cc1ccc(CN2CCC(Nc3ncc(CO)c(Oc4c(C)cc(-c5ccc(C#N)cc5)cc4C)n3)CC2)cc1 .
Reply: 626

Ask: Please report the measured IC50 for Cc1cc(-c2ccncc2)cc(C)c1Oc1nc(NC2CCN(Cc3ccc(S(=O)(=O)NCCO)cc3)CC2)ncc1CO tested on Human immunodeficiency virus type 1 reverse transcriptase (Human immunodeficiency virus 1).
Reply: 186
